- Tested system: AHAS protein comprising the P197S mutation (Arabidopsis thaliana, UniProt P17597, P197S)
- Sequence (P17597 56-670 P197S): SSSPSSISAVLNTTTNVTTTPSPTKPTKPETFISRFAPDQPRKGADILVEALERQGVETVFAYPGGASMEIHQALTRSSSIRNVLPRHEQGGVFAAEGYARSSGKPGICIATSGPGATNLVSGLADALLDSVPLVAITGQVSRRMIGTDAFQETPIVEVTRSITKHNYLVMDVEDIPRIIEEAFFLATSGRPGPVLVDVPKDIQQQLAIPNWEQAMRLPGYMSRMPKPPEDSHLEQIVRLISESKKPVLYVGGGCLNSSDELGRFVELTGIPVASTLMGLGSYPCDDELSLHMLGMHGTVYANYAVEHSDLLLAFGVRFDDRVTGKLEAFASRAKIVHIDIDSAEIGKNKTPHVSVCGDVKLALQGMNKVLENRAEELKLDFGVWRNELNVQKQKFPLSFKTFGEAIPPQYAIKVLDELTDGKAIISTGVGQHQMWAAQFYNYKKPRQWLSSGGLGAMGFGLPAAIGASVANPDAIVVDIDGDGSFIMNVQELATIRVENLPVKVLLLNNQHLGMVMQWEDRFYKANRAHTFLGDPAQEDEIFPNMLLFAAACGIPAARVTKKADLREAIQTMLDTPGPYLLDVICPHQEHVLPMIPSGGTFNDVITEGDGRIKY
- Protocol: biochemical
- Condition context: AHAS P197S relative to WT
Parameter threshold = 30. Response is criterion met when Resistance Factor P197S meets or exceeds it, else criterion not met.

Would you please look over these solved cases?
[[record]]
compound = "COc1cc(OC)nc(NC(=O)NS(=O)(=O)N(C)S(C)(=O)=O)n1 [Amidosulfuron, amidosulfuron]"
assigned_label = "criterion met"

[[record]]
compound = "COc1ncc(F)c2nc(S(=O)(=O)Nc3c(F)cccc3F)nn12 [Florasulam, florasulam]"
assigned_label = "criterion not met"

[[record]]
compound = "COc1cc(OC)nc(NC(=O)NS(=O)(=O)c2ncccc2C(=O)N(C)C)n1 [Nicosulfuron, nicosulfuron]"
assigned_label = "criterion not met"

[[record]]
compound = "COC(=O)c1ccc(I)cc1S(=O)(=O)[N-]C(=O)Nc1nc(C)nc(OC)n1.[Na+] [Iodosulfuron-methy-sodium, iodosulfuron-methyl-sodium]"
assigned_label = "criterion met"

[[record]]
compound = "COc1cc(OC)nc(NC(=O)NS(=O)(=O)c2cc(NC=O)ccc2C(=O)N(C)C)n1 [Foramsulfuron, foramsulfuron]"
assigned_label = "criterion not met"


Now for another entry.
In plain terms: is recorded Resistance Factor P197S at least 30 for CCS(=O)(=O)c1cccnc1S(=O)(=O)NC(=O)Nc1nc(OC)cc(OC)n1 [Rimsulfuron, rimsulfuron] ?
criterion not met
